Cited source for all entries: patent US7396837B2

Test system: K-562
Test details: SRB colorimetric cell growth inhibition assay, K-562
Type: cell-based
Test parameters: Homo sapiens, K562, K-562; cell killing (cytotoxic effect); read-out: LC50 K-562
# CC50 values compiled below
Measured quantity: CC50

Molecule smiles	Result
COc1cc(-c2c3n(c4c(=O)oc5cc(OC(=O)[C@@H](N)Cc6c[nH]c7ccccc67)c(OC)cc5c24)CCc2cc(OC(=O)[C@@H](N)Cc4c[nH]c5ccccc45)c(OC)cc2-3)ccc1OC(=O)[C@@H](N)Cc1c[nH]c2ccccc12	5.3 µM
COc1cc2ccn3c(c(-c4ccc(OC(=O)[C@@H](N)C(C)C)c(OC)c4)c4c5cc(OC)c(OC(=O)[C@@H](N)C(C)C)cc5oc(=O)c43)c2cc1OC	11.6 µM
C=CCOC(=O)N[C@@H](C)C(=O)Oc1ccc(-c2c3c4cc(OC)c(OC(=O)[C@H](C)NC(=O)OCC=C)cc4oc(=O)c3n3ccc4cc(OC(=O)[C@H](C)NC(=O)OCC=C)c(OC)cc4c23)cc1OC	6.17 µM
COc1cc(-c2c3c4cc(OC)c(OC(=O)CCCCCN)cc4oc(=O)c3n3ccc4cc(OC(=O)CCCCCN)c(OC)cc4c23)ccc1OC(=O)CCCCCN	10.5 µM
COc1cc(-c2c3c4cc(OC)c(OC(=O)C[C@H](N)C(C)C)cc4oc(=O)c3n3ccc4cc(OC(=O)C[C@H](N)C(C)C)c(OC)cc4c23)ccc1OC(=O)C[C@H](N)C(C)C	4.23 µM
COc1cc2c(cc1O)oc(=O)c1c2c(-c2ccc(OC)c(OC)c2)c2c3cc(OC)c(O)cc3ccn21	8.61 µM
COc1cc2ccn3c(c(-c4ccc(OC(=O)[C@@H](NC(=O)OC(C)(C)C)C(C)C)c(OC)c4)c4c5cc(OC)c(OC(=O)[C@@H](NC(=O)OC(C)(C)C)C(C)C)cc5oc(=O)c43)c2cc1OC	9.57 µM
COc1cc(-c2c3c4cc(OC)c(OC(=O)[C@H](C)NC(=O)[C@H](C)N)cc4oc(=O)c3n3ccc4c(OC(=O)[C@H](C)NC(=O)[C@H](C)N)c(OC)c(OC)cc4c23)ccc1OC(=O)[C@H](C)NC(=O)[C@H](C)N	7.4 µM
COc1cc2c(cc1O)CCn1c-2c(Br)c2c3cc(OC)c(O)cc3oc(=O)c21	21.8 µM
COc1cc(-c2c3c4cc(OC)c(OC(=O)[C@H](C)N)cc4oc(=O)c3n3ccc4cc(OC(=O)[C@H](C)N)c(OC)cc4c23)ccc1OC(=O)[C@H](C)N	0.281 µM

====

Test details: SRB colorimetric cell growth inhibition assay, H-MEC-1
Assay type: cell-based
Test parameters: human
Measured quantity: LC50 (concentration giving 50% net cell killing) (µM)

Molecule smiles	Result
COc1cc(-c2c3c4cc(OC)c(OC(=O)[C@@H](N)C(C)C)cc4oc(=O)c3n3ccc4c(OC(=O)[C@@H](N)C(C)C)c(OC)c(OC)cc4c23)ccc1OC(=O)[C@@H](N)C(C)C	0.0826
COc1cc(-c2c3n(c4c(=O)oc5cc(OC(=O)[C@H](N)C(C)C)c(OC)cc5c24)CCc2cc(OC(=O)[C@H](N)C(C)C)c(OC)cc2-3)ccc1OC(=O)[C@H](N)C(C)C	5.37
COc1cc(-c2c3n(c4c(=O)oc5cc(OC(=O)[C@@H](N)C(C)C)c(OC)cc5c24)CCc2cc(OC(=O)[C@@H](N)C(C)C)c(OC)cc2-3)ccc1OC(=O)[C@@H](N)C(C)C	4.73
